- EXPERIMENTAL_SYSTEM: ASK1 T838 auto phosphorylation in HEK-293T cells (Homo sapiens (Human))
- Sequence (Q99683 whole entry): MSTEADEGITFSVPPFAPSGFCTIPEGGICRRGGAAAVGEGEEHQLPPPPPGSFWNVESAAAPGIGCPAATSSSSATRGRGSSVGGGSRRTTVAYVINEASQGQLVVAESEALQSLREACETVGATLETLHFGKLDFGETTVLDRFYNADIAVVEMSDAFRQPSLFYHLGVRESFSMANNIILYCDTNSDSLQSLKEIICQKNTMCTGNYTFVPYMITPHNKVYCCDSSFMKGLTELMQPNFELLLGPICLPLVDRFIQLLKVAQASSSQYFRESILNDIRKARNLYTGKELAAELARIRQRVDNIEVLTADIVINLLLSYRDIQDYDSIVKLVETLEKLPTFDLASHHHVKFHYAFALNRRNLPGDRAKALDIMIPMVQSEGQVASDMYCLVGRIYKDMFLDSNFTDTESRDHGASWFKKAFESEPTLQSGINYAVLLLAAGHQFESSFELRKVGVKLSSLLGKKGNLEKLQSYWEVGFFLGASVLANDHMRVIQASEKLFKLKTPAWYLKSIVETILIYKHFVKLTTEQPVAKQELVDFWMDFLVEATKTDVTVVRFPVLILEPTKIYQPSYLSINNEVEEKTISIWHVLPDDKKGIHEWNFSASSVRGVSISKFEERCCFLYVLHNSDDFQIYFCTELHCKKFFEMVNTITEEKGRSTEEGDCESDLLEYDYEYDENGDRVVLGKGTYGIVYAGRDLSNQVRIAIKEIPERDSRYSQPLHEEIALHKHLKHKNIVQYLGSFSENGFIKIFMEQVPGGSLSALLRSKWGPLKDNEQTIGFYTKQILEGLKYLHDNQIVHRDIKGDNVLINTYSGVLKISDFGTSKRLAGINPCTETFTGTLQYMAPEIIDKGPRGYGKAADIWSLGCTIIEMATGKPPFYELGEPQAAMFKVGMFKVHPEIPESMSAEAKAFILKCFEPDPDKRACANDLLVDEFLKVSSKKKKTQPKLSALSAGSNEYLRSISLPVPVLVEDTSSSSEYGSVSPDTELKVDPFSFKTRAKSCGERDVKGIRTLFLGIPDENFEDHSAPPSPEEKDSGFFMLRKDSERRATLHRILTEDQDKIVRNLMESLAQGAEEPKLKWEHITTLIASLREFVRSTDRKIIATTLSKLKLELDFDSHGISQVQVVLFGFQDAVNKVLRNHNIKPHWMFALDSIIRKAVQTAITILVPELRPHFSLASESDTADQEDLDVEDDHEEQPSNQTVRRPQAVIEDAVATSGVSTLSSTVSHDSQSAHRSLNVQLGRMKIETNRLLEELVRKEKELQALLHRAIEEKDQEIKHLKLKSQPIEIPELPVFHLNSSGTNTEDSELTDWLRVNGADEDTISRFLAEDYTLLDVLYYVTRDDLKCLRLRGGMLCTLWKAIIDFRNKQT
- EXPERIMENT_DESCRIPTION: ASK1 (AUTO PHOS T838) assay, MSD format
- Format: cell-based
- EXPERIMENTAL_CONDITIONS: HEK 293T cells transfected with ASK1-V5 full length plasmid, compounds 1 hr at 37° C.; read-out: IC50
pIC50: −log10 of the molar value.
Measured pIC50 values are reported for all entries that follow.

# COMPOUND_STRUCTURE, pIC50
rows = [
    ("C[C@@H]1CCCOc2ccc(-c3cnn(C)c3)cc2C(=O)Nc2cccc(n2)-c2nncn21", "5.00 to 6.00"),
    ("Cc1nn(C)cc1-c1ccc2c(c1)C(=O)Nc1cccc(n1)-c1nncn1CCCCO2", "> 6.00"),
    ("O=C1Nc2cccc(n2)-c2nncn2C/C=C\\COc2ccc(F)cc21", "> 6.00"),
    ("C[C@@H]1CCOc2cc(F)c(-c3cnn4c3CN(C)CC4)cc2C(=O)Nc2cccc(n2)-c2nncn2C1", "> 6.00"),
    ("COCCOc1cc2c(cc1F)OCCCCn1cnnc1-c1cccc(n1)NC2=O", "> 6.00"),
    ("O=C1Nc2cccc(n2)-c2nncn2CCCCOc2ccc(N3CCC(F)(F)C3)cc21", "> 6.00"),
    ("O=C1Nc2cccc(n2)-c2nncn2C/C=C\\COc2c(Br)cccc21", "< 5.00"),
    ("O=C1Nc2cccc(n2)-c2nncn2C/C=C/COc2ccc(N3CCOCC3)cc21", "> 6.00"),
]
